System: Calf thymus DNA
Assay: Displacement of ethidium bromide from calf thymus type 1 DNA after 4 hrs by microtiter assay
The reader will find reported IC50 values listed item by item below.
Give the number; µg/mL is assumed, so skip it.

See these solved cases before continuing.
{"columns": ["compound", "system_tested", "IC50, µg/mL"],
 "data": [
  ["COc1c(O)c2c(c3cc(C(=O)N4CCc5c4c(O)c(OC)c4[nH]c(C(=O)N6C[C@H]7C[C@@]78C6=CC(=O)c6[nH]cc(C)c68)cc54)[nH]c13)CCN2C(N)=O [(+)-CC-1065]", "Calf thymus DNA", 26],
  ["COC(=O)C(O)(c1cc2c(c3oc([C@]4(C)C[C@@H]4C)cc(=O)c13)C(=O)c1c(ccc([C@H]3C[C@](C)(N(C)C)[C@H](O[C@@H]4C[C@H](OC)[C@H](O)[C@@H](C)O4)[C@H](C)O3)c1O)C2=O)[C@H]1O[C@H](C)[C@@H](O)[C@@H](OC)[C@@H]1O (some centres undefined)", "Calf thymus DNA", 44],
  ["C/C=C\\C1OC1(C)c1cc(=O)c2c(C)cc3c(c2o1)C(=O)c1c(O)c([C@H]2C[C@](C)(N(C)C)[C@@H](OC(C)=O)[C@@H](C)O2)cc([C@@H]2C[C@H](N(C)C)[C@@H](O)[C@@H](C)O2)c1C3=O (some centres undefined)", "Calf thymus DNA", 3.6]
]}

Reading of IC50 for COc1cccc2c1C(=O)c1c(O)c3c(c(O)c1C2=O)C[C@@](O)(C(C)=O)C[C@@H]3O[C@H]1C[C@H](N)[C@H](O)[C@H](C)O1 with Calf thymus DNA: 2
